B1: NP_006221.1 (parent)
chain: CQPISFSGFGAEDDDLGGLGLGP

Variants of: B1
Assay explanation: protein stability index of a GFP-peptide fusion (GPS, HEK-293T) (PSI 1-6); higher = more stable;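 note: lentivirally expressed fusion library, cells FACS-sorted into six equal-sized GFP/DsRed ratio bins, PSI computed from sequencing read fractions per bin weighted by bin number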
Experimental conditions: c terminus: native
Measured protein stability index values are reported for all entries that follow.
Returns: the value as a bare number; no unit string appended.

CQPISFKGFGAEDDDLGGLGLGP : 2.77
AQPISFSGFGAEDDDLGGLGLGP : 2.11
CQPISFSKFGAEDDDLGGLGLGP : 2.48

Shifting focus to the variant that follows.
Any idea what its protein stability index is? The variant is CQQISFSGFGAEDDDLGGLGLGP
2.42
